The molecules below each have a reported pKi tested on Adenosine receptor A2b (Homo sapiens, UniProt P29275); the values come from various publications.
// scale note: pKi = -log10(conc_M); give the bare number

Here's what some known entries look like.
CSCCn1c(=O)c2[nH]c(Cc3cccs3)nc2n(Cc2ccco2)c1=O | 7.03
COc1ccccc1CNC(=O)c1cc(-c2ccco2)nc(N)n1 | 6.81
CCCn1c(=O)c2nc(-c3ccnn3-c3ccccc3)[nH]c2n(CCC)c1=O | 5.96
CCCCn1c(=O)[nH]c2nc(-c3cnn(Cc4cccc(C(F)(F)F)c4)c3)[nH]c2c1=O | 7.52
CCCn1c(=O)[nH]c2nc(-c3ccc(S(=O)(=O)Oc4ccc([N+](=O)[O-])cc4)cc3)[nH]c2c1=O | 8.27
c1coc(-c2nc(Nc3cnccn3)ncc2-c2ccncn2)c1 | 6.94
CCn1c(=O)c2[nH]c(-c3ccc(OCC(=O)Nc4cccnc4)cc3)nc2n(CCCOC)c1=O | 7.47

# evaluate next
// lookup pKi for CCCn1c(=O)c2[nH]c(-c3ccc(OC)cc3)cc2n(CCC)c1=O
6.31

====

Protein target, amino acids: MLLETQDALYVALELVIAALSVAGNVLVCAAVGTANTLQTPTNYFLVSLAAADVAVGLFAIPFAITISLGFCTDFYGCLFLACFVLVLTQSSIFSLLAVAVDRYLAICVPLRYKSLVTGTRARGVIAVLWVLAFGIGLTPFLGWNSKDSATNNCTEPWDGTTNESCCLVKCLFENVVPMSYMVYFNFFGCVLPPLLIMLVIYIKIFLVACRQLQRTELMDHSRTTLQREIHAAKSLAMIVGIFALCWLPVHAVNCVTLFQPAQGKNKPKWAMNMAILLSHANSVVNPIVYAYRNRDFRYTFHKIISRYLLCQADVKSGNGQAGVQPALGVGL
Compiled Ki measurements on the protein given by its sequence taken from the literature.
Label key: Criterion met means Ki under 20 nM; Criterion not met means Ki of 20 nM or more.

CCN(C(C)=O)c1ccc(OC)c2nc(NC(=O)c3ccc(C(=O)N4CCN(C)CC4)cc3)sc12 | Criterion met
COCCCn1c(=O)n(C)c(=O)c2[nH]c(-c3ccc(OCC(=O)NC4CCCC4)cc3)cc21 | Criterion not met
CCCn1c(=O)c2[nH]c(-c3ccc(OCC(=O)Nc4ccc(C(=O)OCC)cc4)cc3)cc2n(CCC)c1=O | Criterion not met
CC(C)Cn1c(=O)[nH]c2nc(-c3cnn(Cc4cccc(F)c4)c3)[nH]c2c1=O | Criterion not met

Given CCCn1c(=O)c2[nH]c(-c3cnn(Cc4nc(-c5ccc(C)cc5)no4)c3)nc2n(CCC)c1=O , is recorded Ki strictly lower than 20 nM?
Criterion not met

Decide: Ki of COc1cccc2cc(C(N)=O)c(=N)oc12 strictly below 20 nM?
Criterion not met

Is Ki strictly under 20 nM for the entry CCOC(=O)Nc1nc(-c2ccccc2)c(C(=O)c2ccccc2)s1 ?
Criterion not met

# check: Ki < 20 nM for CCCn1c(=O)c2[nH]c(-c3ccc(OCC(=O)c4c(NC(=O)O)n(C)c(=O)n(C)c4=O)cc3)cc2n(CCC)c1=O
Criterion not met

Please check: Ki for CCCn1c(=O)c2nc(-c3cnn(Cc4noc(-c5ccc(C(F)(F)F)cc5)n4)c3)[nH]c2n(CCC)c1=O , strictly under 20 nM or not?
Criterion not met

# check: Ki < 20 nM for COC[C@H]1CCCN1c1cc(NC(C)=O)nc(-n2nc(C)cc2C)n1
Criterion not met

====

- experimental_target: Adenosine receptor A2b (Homo sapiens, UniProt P29275)
- Sequence (P29275 whole entry): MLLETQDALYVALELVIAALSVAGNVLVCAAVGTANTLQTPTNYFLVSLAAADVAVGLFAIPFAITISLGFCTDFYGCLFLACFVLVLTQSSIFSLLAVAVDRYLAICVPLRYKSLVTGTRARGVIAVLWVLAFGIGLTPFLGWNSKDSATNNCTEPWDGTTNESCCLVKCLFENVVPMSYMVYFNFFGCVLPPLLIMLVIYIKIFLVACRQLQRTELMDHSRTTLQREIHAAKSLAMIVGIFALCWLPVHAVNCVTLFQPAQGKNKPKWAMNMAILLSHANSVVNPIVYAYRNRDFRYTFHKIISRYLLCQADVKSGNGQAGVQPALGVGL
The following molecules were reported with log10 Ki values on Adenosine receptor A2b (Homo sapiens, UniProt P29275) in different studies.
Recorded Ki (log10, nM)

Below are worked cases with known answers.
CCCn1c(=O)c2[nH]c(-c3ccc[nH]3)nc2n(CCCOC)c1=O | 2.17
O=c1ccc(Nc2ncc(-c3ccncn3)c(-c3ccco3)n2)c[nH]1 | 1.20
CC1=C(C(=O)OC(C)C)C(c2cnsc2)n2c(nc3ccccc32)N1 (racemic) | 2.44
Cn1c(=O)c2[nH]c(-c3cccc(OCC(=O)Nc4ccccc4)c3)cc2n(C)c1=O | 2.22
CCCn1c(=O)c2nc(-c3cnn(Cc4cc(-c5cccc(OC)c5)on4)c3)[nH]c2n(CCC)c1=O | 2.12

Query the reported log10 Ki for Adenosine receptor A2b (Homo sapiens, UniProt P29275); item: COCCCn1c(=O)n(C)c(=O)c2[nH]c(-c3ccc(OCC(=O)Nc4ccccc4)cc3)cc21
1.14

Checklist item: log10 Ki tested on Adenosine receptor A2b (Homo sapiens, UniProt P29275), entry CCOC(=O)C1=C(C)Nc2nc3ccccc3n2C1c1cnoc1 (racemic) , value?
1.37

Query for Adenosine receptor A2b (Homo sapiens, UniProt P29275): what log10 Ki does the record show for CCn1nnc([C@H]2O[C@@H](n3cnc4c(N)nc(Cl)nc43)[C@H](O)[C@@H]2O)n1 ?
2.99

Write down the reported log10 Ki of CCCn1c(=O)[nH]c2nc(-c3ccccc3)[nH]c2c1=O , test system: Adenosine receptor A2b (Homo sapiens, UniProt P29275).
0.67

Checklist item: log10 Ki tested on Adenosine receptor A2b (Homo sapiens, UniProt P29275), entry Cn1c(=O)c2[nH]c(-c3ccc(S(=O)(=O)O)cc3)nc2n(C)c1=O , value?
3.12

What value of log10 Ki on Adenosine receptor A2b (Homo sapiens, UniProt P29275) does CC(C)Cn1c(=O)c2[nH]c(-c3cnn(Cc4cccc(F)c4)c3)nc2n(CC(C)C)c1=O have?
3.00

For Adenosine receptor A2b (Homo sapiens, UniProt P29275), provide log10 Ki of CCN(C(C)=O)c1ccc(OC)c2nc(NC(=O)c3ccc(C#N)cc3)sc12 please.
1.00

Missing value: log10 Ki, Adenosine receptor A2b (Homo sapiens, UniProt P29275), entry CCSCCn1c(=O)c2c(nc(Cc3cccs3)n2C)n(Cc2ccco2)c1=O . Fill in?
1.95

// fetch Adenosine receptor A2b (Homo sapiens, UniProt P29275) log10 Ki for CCCn1c(=O)c2[nH]c(-c3cc(C)nn3C)nc2n(CCC)c1=O
3.57

Hello, I am looking for reported log10 Ki with Adenosine receptor A2b (Homo sapiens, UniProt P29275) for CCCn1c(=O)c2[nH]c(-c3cnn(Cc4noc(-c5ccccc5C(F)(F)F)n4)c3)nc2n(CCC)c1=O . Could you help?
2.00

Look up log10 Ki with Adenosine receptor A2b (Homo sapiens, UniProt P29275) for this molecule: CCn1nnc([C@H]2O[C@@H](n3cnc4c(N)nc(N[C@H](CO)Cc5ccc(OC)cc5)nc43)[C@H](O)[C@@H]2O)n1
3.07

Requested read-out log10 Ki, target or system Adenosine receptor A2b (Homo sapiens, UniProt P29275), entry O=C(COc1ccc(-c2cc3c([nH]2)c(=O)n(CC2CC2)c(=O)n3CC2CC2)cc1)Nc1ccccc1
0.67

Param readout= log10 Ki; system= Adenosine receptor A2b (Homo sapiens, UniProt P29275); entry= CC1=C(C(=O)OC(C)C)C(c2ccno2)n2c(nc3ccccc32)N1 (racemic) ; returns value.
3.01

Give the reported log10 Ki for CCCn1c(=O)c2[nH]c(-c3cnn(Cc4noc(-c5cccc(C(F)(F)F)c5)n4)c3)nc2n(CCC)c1=O (system: Adenosine receptor A2b (Homo sapiens, UniProt P29275)).
1.81

Provide value of log10 Ki for this record tested with Adenosine receptor A2b (Homo sapiens, UniProt P29275): Oc1cccc(-c2nc(N3CCCCC3)c3nc[nH]c3n2)c1
2.20

Quick check: log10 Ki on Adenosine receptor A2b (Homo sapiens, UniProt P29275), item CCCn1c(=O)c2[nH]c(-c3ccc(OCC(=O)n4ccc(N)n4)cc3)cc2n(CCC)c1=O ?
1.23

====

Target chain: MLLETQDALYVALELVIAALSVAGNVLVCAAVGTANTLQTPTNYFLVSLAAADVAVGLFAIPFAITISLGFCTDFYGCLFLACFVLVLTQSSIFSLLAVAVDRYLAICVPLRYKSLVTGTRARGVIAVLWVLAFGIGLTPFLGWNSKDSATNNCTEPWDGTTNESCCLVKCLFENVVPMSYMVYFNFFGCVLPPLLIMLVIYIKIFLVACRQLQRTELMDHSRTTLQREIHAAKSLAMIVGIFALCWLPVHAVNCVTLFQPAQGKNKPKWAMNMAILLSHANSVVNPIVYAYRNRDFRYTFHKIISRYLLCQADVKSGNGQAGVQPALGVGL
Ok so here's the combined literature set: pKi for the protein given by its sequence.
Just the number, please; pKi means minus log10 of the concentration in mol/L.

Solved entries (count: 3):
CCCCn1c(=O)[nH]c2[nH]c(-c3ccc(OCC(=O)N4CCN(C(=O)OCC)CC4)cc3)nc2c1=O | 8.21
CCCn1c(=O)c2nc(-c3ccc(OCC(=O)O)cc3O)[nH]c2n(CCC)c1=O | 6.73
C#CCn1c(=O)c2[nH]c(Cc3c(F)cccc3F)nc2n(Cc2ccco2)c1=O | 7.05

Please look at the following compound next.
What value of pKi has been recorded for this entry: CCn1nnc([C@H]2O[C@@H](n3cnc4c(N)nc(N[C@H](CO)Cc5ccc(Cl)cc5)nc43)[C@H](O)[C@@H]2O)n1
5.57
